Quick list: pIC50 per entry.
target: TYK2 (Homo sapiens); construct: 5 μl of catalytic domain recombinant Kinase enzyme+Tyr peptide substrate (Invitrogen, CA); test: Z'-LYTE kinase assay TYK2
pIC50: −log10 of the molar value.

Recorded pIC50, per entry:
                               query_smiles        result
0  Cc1cc(Nc2cc(NCc3ccccc3)c(C(N)=O)cn2)ccc1C(=O)N1CC=CC1  6.00 to 7.00
1  Cc1cc(Nc2cc(NCc3cncc(F)c3)c(C(N)=O)cn2)ccc1C(=O)N(C)C  6.00 to 7.00
2  CC(=O)N1CCN(c2ccc(Nc3cc(NCc4cccc(F)c4F)c(C(N)=O)cn3)cc2)CC1  6.00 to 7.00
3  COc1cccc(Nc2cc(NCc3ccccc3)c(C(N)=O)cn2)c1        < 6.00
4  Cc1cc(Nc2cc(NCc3cccc(F)c3)c(C(N)=O)cn2)ccc1N1CCCC1=O  6.00 to 7.00

Q. Need pIC50, item `Cc1cc(Nc2cc(NCc3ccccc3)c(C(N)=O)cn2)ccc1C(=O)N(C)CCO`
A. 6.00 to 7.00

Q. Do the same for `CC(=O)N1CCN(c2ccc(Nc3cc(NCC4CCCC4)c(C(N)=O)cn3)cc2)CC1` please
A. 7.00 to 8.00

Q. Another molecule to look at: `NC(=O)c1cnc(Nc2ccc(C3CCNCC3)cc2)cc1NCc1ccccc1F`
A. 6.00 to 7.00

* * *

Here the recorded pIC50 is given for each entry.
target: JAK3 (Homo sapiens); construct: 5 μl of catalytic domain recombinant Kinase enzyme+Tyr peptide substrate (Invitrogen, CA); assay: Z'-LYTE kinase assay JAK3
Sequence (P52333 822-1111 limits assumed): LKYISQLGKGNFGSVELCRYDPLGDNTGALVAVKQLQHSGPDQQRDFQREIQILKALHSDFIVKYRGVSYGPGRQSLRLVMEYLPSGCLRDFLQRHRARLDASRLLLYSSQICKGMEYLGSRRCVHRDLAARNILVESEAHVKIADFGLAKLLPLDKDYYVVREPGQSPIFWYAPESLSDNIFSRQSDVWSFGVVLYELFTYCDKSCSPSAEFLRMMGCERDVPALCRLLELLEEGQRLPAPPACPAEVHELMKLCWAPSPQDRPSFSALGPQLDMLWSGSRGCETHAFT
pIC50: −log10 of the molar value.

These recorded examples may help you get a feel for the data.
>>> print(df.to_string())
                               query_smiles        result
0  NC(=O)c1cnc(Nc2ccc(N3CCOCC3)cc2)cc1NC1(c2ccccc2)CC1  7.00 to 8.00
1  CCC(=O)N1CCC(c2ccc(Nc3cc(NCc4cccc5[nH]ncc45)c(C(N)=O)cn3)cc2)CC1  8.00 to 9.00
2  NC(=O)c1cc(F)c(Nc2cccc(-n3nccn3)c2)nc1NC1CCCC1  6.00 to 7.00
3  NC(=O)c1cnc(Nc2ccc(-n3cccn3)nc2)cc1NCc1ccccc1  6.00 to 7.00
4  NC(=O)c1cnc(Nc2cccc(OCCN3CCOCC3)c2)cc1N[C@H](CO)c1ccccc1  8.00 to 9.00
5  CC(=O)N1CCN(c2ccc(Nc3cc(NC4(c5ccccc5)CC4)c(C(N)=O)cn3)cc2)CC1  8.00 to 9.00
6  NC(=O)c1cnc(Nc2ccc(OCCN3CCCC3)cc2)cc1NC1(c2ccccc2)CC1  7.00 to 8.00

Here's the next entry for you.
Q. Fill in: pIC50 of `CC(=O)Nc1cccc(Nc2cc(NCc3cccs3)c(C(N)=O)cn2)c1` is ___
A. 8.00 to 9.00

* * *

target: TYK2 (Homo sapiens, UniProt P29597); construct: 5 μl of catalytic domain recombinant Kinase enzyme+Tyr peptide substrate (Invitrogen, CA); assay: Z'-LYTE kinase assay TYK2
Sequence (P29597 897-1176 limits assumed): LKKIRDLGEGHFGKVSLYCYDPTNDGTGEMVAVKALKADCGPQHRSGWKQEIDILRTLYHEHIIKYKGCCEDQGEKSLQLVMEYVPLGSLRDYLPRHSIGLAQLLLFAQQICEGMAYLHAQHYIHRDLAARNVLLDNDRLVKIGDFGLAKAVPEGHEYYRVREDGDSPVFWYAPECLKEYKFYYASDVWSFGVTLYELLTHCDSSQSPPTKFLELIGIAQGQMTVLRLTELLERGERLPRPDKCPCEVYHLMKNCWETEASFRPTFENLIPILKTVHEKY
measurement kind: IC50

                                   molecule       result
0  COCCN(C)C(=O)c1ccc(Nc2cc(NCc3ccccc3)c(C(N)=O)cn2)cc1C  0.1 to 1 µM

# ---- query molecule ----
Q. Suppose we examine the molecule `NC(=O)c1cnc(Nc2ccc(F)cc2)cc1NCc1cccc2[nH]ccc12` ; what IC50 value has been reported?
A. 0.1 to 1 µM

Cited source: patent US20150353495A1
